FYI, the data here is from ChEMBL document CHEMBL1201862.

GI50 overview
Tested on: SW-620
Assay Summary: NCI tumour cell line growth inhibition, 48 h
The source made the active and inactive calls. Rule as the data show it: active = GI50 up to about 1.1 µM and inactive = higher.
Property Label: GI50

1. Cc1cn(C2CC(O)C(CO)C2C)c(=O)[nH]c1=O (configuration not stated); > 100 µM (inactive)
2. N#CC(NCCO)=C1C(=O)c2ccccc2C1=O; > 100 µM (inactive)
3. CC(=O)N(C(=O)CC(=O)N/N=C\c1ccc(Br)c(N(CCC#N)CCC#N)c1)c1ccc(Cl)cc1; 93.3 µM (inactive)
4. Cc1ccc2ccccc2c1CSc1nc(N)nc2c1ncn2CC(C)C; 24.7 µM (inactive)
5. CCCCCCC(=O)c1ccc2ccccc2c1O; 64.7 µM (inactive)
6. C=C1C(=O)OC2CC(C)C3(O)CCC(=O)C3(C)CC12 (configuration not stated); 42.1 µM (inactive)
7. Nc1ncnc2c1sc(=S)n2-c1ccccc1; > 100 µM (inactive)

* * *

Test system: NCI-H23
Assay Summary: NCI tumour cell line growth inhibition, 48 h
Activity calls are given as the source filed them. Cut-off read from the data, not from the text of the source: active = GI50 up to about 1.1 µM and inactive = higher.
Outcome codes: active, inactive

1) O=S1(=O)OCCOS(=O)(=O)C1Cc1ccccc1; inactive
2) Cc1nc(N(C(C)C)C(C)C)c(C(C)C)o1; inactive
3) N#CC(C#N)=C(N)/C(C#N)=C/c1ccc2ccccc2n1; inactive
4) Cc1cc(-c2nc3ccc(F)cc3s2)ccc1NC(=O)C(N)CCCCN (configuration not stated); inactive
5) C/C(=C\c1csc(C)n1)[C@@H]1C[C@@H]2O[C@@H]2CCC[C@H](C)[C@H](O)[C@@H](C)C(=O)C(C)(C)[C@@H](O)CC(=O)O1.C/C(=C\c1csc(C)n1)[C@@H]1C[C@@H]2O[C@]2(C)CCC[C@H](C)[C@H](O)[C@@H](C)C(=O)C(C)(C)[C@@H](O)CC(=O)O1; active
6) COc1cc(C(c2ccccc2)N2C(=O)CC[C@H]2C(=O)O)cc(OC)c1OC (some centres not stated); inactive
7) O=C(O)c1nc(-c2ccccc2)[nH]c1C(=O)O; inactive
8) COC(C)(C)[C@H](O)C(O)CC(C)[C@@H]1CCC23CC12CCC1[C@@]2(C)CCC(OC(C)=O)C(C)(C)C2CC(OC2OC(COC(C)=O)C(O)C(O)C2O)[C@]13C (some centres not stated); inactive
9) COc1ccc(C(CC(=O)c2ccccc2)C(=O)c2ccc3c(c2)OCO3)cc1 (configuration not stated); inactive
10) CCC(C)Cn1c(C)nc2c1C(=O)c1ccccc1C2=O (configuration not stated); inactive
11) C=C(CN(C)C)C(=O)c1ccccc1[N+](=O)[O-]; inactive
12) COc1cc2c(cc1OC)-c1cc3ccccc3c[n+]1CC2; inactive

* * *

Tested on: MDA-MB-435
Assay Summary: NCI tumour cell line growth inhibition, 48 h
Calls of active or inactive are those of the source. Cut-off read from the data, not from the text of the source: active = GI50 up to about 1.1 µM and inactive = higher.
Form field: GI50 (one value per entry).
Property Label: GI50

1) CCNC1=C(NC(=O)CC)C(=O)c2ccccc2C1=O; > 10 µM (inactive)
2) O=C1NC2(CCCCC2)N=C2C(Cl)CCCC12Cl (stereo not given); > 100 µM (inactive)
3) CC1=C(C(=O)OCCc2ccc([N+](=O)[O-])cc2)C(c2cccc([N+](=O)[O-])c2)C(C(=O)OC(C)C)=C(C)N1 (stereo not given); 4.46 µM (inactive)
4) CCCCC/C=C1/CC(CO)(COC(=O)CC(C(C)C)C(C)C)OC1=O (stereo not given); 6.27 µM (inactive)
5) CC[C@]12C=CCN3CC[C@@]4(c5cc(Br)c(OC)cc5N(C)[C@H]4[C@@](O)(C(=O)NC(Cc4c[nH]c5ccccc45)C(=O)OC)[C@@H]1O)[C@@H]32 (stereo not given in full); 26.2 µM (inactive)

* * *

System: T47D
Assay Summary: NCI tumour cell line growth inhibition, 48 h
Activity calls are given as the source filed them. Rule as the data show it: active = GI50 up to about 1.1 µM and inactive = higher.
Property: GI50; scope: individual compounds
Property Label: GI50

1) CC1OC(n2cnc3c(N)nc(Cl)nc32)C(C)(O)C1O (stereo not given); > 25 µM (inactive)
2) COc1c2occc2cc2ccc(=O)oc12 [METHOXSALEN]; > 100 µM (inactive)
3) CC[C@H](CCCC[C@H]1CC[C@@H]2CC(=O)C[C@H]12)OC; 58.9 µM (inactive)
4) CC1=CCC(C)=Nc2nc3ccccc3n21; > 100 µM (inactive)
5) CNC1C(O)C(NC)C2OC3(O)C(=O)CC(C)OC3OC2C1O (stereo not given); > 100 µM (inactive)

* * *

Test system: KM-20L2
Assay Summary: NCI tumour cell line growth inhibition, 48 h
Active and inactive are the calls of the source. No stated cut-off is given here; in the data, active = GI50 up to about 1.1 µM and inactive = higher.
Reported values of GI50 for individual entries
Property Label: GI50

1) [N-]=[N+]=Nc1nnc(CCCCc2nnc(N=[N+]=[N-])o2)o1; > 100 µM (inactive)
2) CSc1cc(-c2cc3ccccc3o2)oc(=O)c1C#N; > 100 µM (inactive)
3) COC(=O)CCSC(=O)Nc1ccc(/N=N/c2ccccc2)cc1; 22.7 µM (inactive)
4) CCOP(=O)(C/C(O)=C1\C(=O)C(CCCNC(=O)OC(C)(C)C)N(Cc2ccc(OC)c(OC)c2)C1=O)OCC (stereo unspecified); > 100 µM (inactive)
5) NC1=NN(c2ccccc2)C(=O)C1C(=O)C(=O)Nc1nccs1 (stereo unspecified); > 100 µM (inactive)
6) COC(=O)C1CCc2nnc(-c3ccccc3)n21 (stereo unspecified); > 100 µM (inactive)

* * *

Test system: SF-268
Assay Summary: NCI tumour cell line growth inhibition, 48 h
Calls of active or inactive are those of the source. No stated cut-off is given here; in the data, active = GI50 up to about 1.1 µM and inactive = higher.
Property Label: GI50

1) Cc1nnc2sc(-c3ccc(N)cc3)nn12; > 100 µM (inactive)
2) OC1[C@H](O)CN(OCc2ccccc2)C[C@@H]1O (stereo partly specified); > 100 µM (inactive)
3) O=C(O)C1(C(=O)O)CCN(S(=O)(=O)c2ccccc2)CC1; > 100 µM (inactive)
4) O=C(NN1CCCCC1)c1cc2cc(CCl)ccc2oc1=O; 16.4 µM (inactive)
5) Nc1nc2c(ncn2Cc2ccccc2CCO)c(=O)[nH]1; > 100 µM (inactive)
6) CCCCC/C=C1/CC(CO)(COC(=O)CC(C(C)C)C(C)C)OC1=O (stereo unspecified); 16.4 µM (inactive)
7) CC[C@]12C=CCN3CC[C@@]4(c5cc(Br)c(OC)cc5N(C)[C@H]4[C@@](O)(C(=O)NC(Cc4c[nH]c5ccccc45)C(=O)OC)[C@@H]1O)[C@@H]32 (stereo partly specified); 6.15 µM (inactive)
8) N#CCC(=O)N/N=C1/C(=O)NC(=O)C(=O)C1c1nc2ccccc2s1 (stereo unspecified); > 100 µM (inactive)
9) C[C@H]1CN[C@@H]2[C@@H](C)[C@H]3[C@@H](C[C@H]4[C@@H]5CC[C@H]6C[C@@H](N)CC[C@]6(C)[C@H]5CC[C@]34C)O[C@@]2(O)C1; 1.5 µM (inactive)
10) COc1cc2c(cc1OC)-c1cc3ccccc3c[n+]1CC2; 27.5 µM (inactive)
11) C=C(CN(C)C)C(=O)c1ccccc1[N+](=O)[O-]; 27.2 µM (inactive)
12) COc1cc(O)c2c(c1)C(=O)c1cc(C)cc(O)c1C2=O; > 100 µM (inactive)
13) Cc1noc(NC(=O)Nc2ccccc2F)c1C#N; 12.4 µM (inactive)
14) C[N+]1(CCCCN2c3ccccc3Sc3cc(N=[N+]=[N-])ccc32)CCN(C(=O)CCNC(=O)Cc2ccc(C(=O)c3ccccc3)cc2)CC1; 23.4 µM (inactive)
15) Nn1c(CCCCCCCCc2nnc(COc3c(O)ccc4ccccc34)n2N)nnc1COc1c(O)ccc2ccccc12; > 100 µM (inactive)
16) COC(=O)C(=O)C(C(=O)C(=O)Nc1cc([N+](=O)[O-])ccc1[N+](=O)[O-])c1nc2ccc(C(=O)c3ccccc3)cc2nc1O (stereo unspecified); 47.6 µM (inactive)
17) COc1ccc2c(c1)nc1n2C(c2c(F)cccc2F)SC1 (stereo unspecified); 32.2 µM (inactive)
18) CC1=CC(N2C(=O)C(C)=CC2O)NC1=O (stereo unspecified); > 100 µM (inactive)
19) COC(=O)C1=C(C)NC(C)=C(C(=O)OCCCN2CCC(c3ccccc3)(c3ccccc3)CC2)[C@H]1c1cccc([N+](=O)[O-])c1; 1.79 µM (inactive)
20) COc1ccc(-c2cc(=O)c3ccccc3[nH]2)c(OC)c1; > 100 µM (inactive)
21) O=c1ccc(-c2ccc(-n3ccnc3)cc2)nn1CCO; > 100 µM (inactive)

* * *

System: SW-620
Assay Summary: NCI tumour cell line growth inhibition, 48 h
Activity calls are given as the source filed them. No stated cut-off is given here; in the data, active = GI50 up to about 1.1 µM and inactive = higher.
Property Label: GI50

1) O[C@@]1(c2cccs2)c2cccc(Cl)c2[C@](O)(c2cccs2)c2cccc(Cl)c21; 17.3 µM (inactive)
2) O=C(CC(O)(C(F)(F)F)C(F)(F)F)c1cccs1; > 10 µM (inactive)
3) CN(CCCNc1ccc2ncn3c4ccccc4c(=O)c1c23)CCCN1C(=O)c2cccc3cc([N+](=O)[O-])cc(c23)C1=O; 0.00325 µM (active)
4) O=C1NC(c2ccc(O)cc2)C2CCC1C2 (stereo not given); > 100 µM (inactive)
5) CC(=O)O[C@H]1CC[C@@]2(C)C(=CC[C@@H]3C2CC[C@]2(C)Nc4[nH]ncc4CC32)C1 (stereo not given in full); 34.8 µM (inactive)
